# Test system: hiPSC-CMs (iCell-Cardiomyocytes^2)
# ASSAY PROTOCOL: MEA impedance (cytotoxicity readout) in hiPSC-CMs
# EXPERIMENTAL CONDITIONS: 1 µM, 48h
Parameter: Imp (impedance), % change from baseline. Scope: all listed entries.
QUANTITY KIND: Imp (impedance), % change from baseline (%)

molecule=N=C(N)c1ccc(OCCCCCOc2ccc(C(=N)N)cc2)cc1 tested_on="hiPSC-CMs (iCell-Cardiomyocytes^2)" quantity_kind="Imp (impedance), % change from baseline" quantitative_readout=-6
molecule=C[C@H](CS)C(=O)N1CCC[C@H]1C(=O)O tested_on="hiPSC-CMs (iCell-Cardiomyocytes^2)" quantity_kind="Imp (impedance), % change from baseline" quantitative_readout=-9
molecule=CCN(CC)CCNC(=O)c1c(C)[nH]c(/C=C2\C(=O)Nc3ccc(F)cc32)c1C tested_on="hiPSC-CMs (iCell-Cardiomyocytes^2)" quantity_kind="Imp (impedance), % change from baseline" quantitative_readout=-7
molecule=COc1cccc2c1C(=O)c1c(O)c3c(c(O)c1C2=O)C[C@@](O)(C(=O)CO)C[C@@H]3O[C@H]1C[C@H](N)[C@H](O)[C@H](C)O1 tested_on="hiPSC-CMs (iCell-Cardiomyocytes^2)" quantity_kind="Imp (impedance), % change from baseline" quantitative_readout=-86
molecule=C#Cc1cccc(Nc2ncnc3cc(OCCOC)c(OCCOC)cc23)c1 tested_on="hiPSC-CMs (iCell-Cardiomyocytes^2)" quantity_kind="Imp (impedance), % change from baseline" quantitative_readout=-2
molecule=Cc1cn(-c2cc(NC(=O)c3ccc(C)c(Nc4nccc(-c5cccnc5)n4)c3)cc(C(F)(F)F)c2)cn1 tested_on="hiPSC-CMs (iCell-Cardiomyocytes^2)" quantity_kind="Imp (impedance), % change from baseline" quantitative_readout=13
molecule="COc1nc(N)nc2c1ncn2[C@@H]1O[C@H](COP(=O)(N[C@@H](C)C(=O)OCC(C)(C)C)Oc2cccc3ccccc23)[C@@H](O)[C@@]1(C)O (stereo partly shown)" tested_on="hiPSC-CMs (iCell-Cardiomyocytes^2)" quantity_kind="Imp (impedance), % change from baseline" quantitative_readout=-5

----------
# Tested on: hiPSC-CMs (iCell-Cardiomyocytes^2)
# EXPERIMENTAL CONDITIONS: 0.1 µM, 24h
Parameter: EAD, number of observations/total well numbers. Scope: all listed entries.
QUANTITY KIND: EAD, number of observations/total well numbers

structure_string=N=C(N)c1ccc(OCCCCCOc2ccc(C(=N)N)cc2)cc1 result=0/6
structure_string=Cc1cn(-c2cc(NC(=O)c3ccc(C)c(Nc4nccc(-c5cccnc5)n4)c3)cc(C(F)(F)F)c2)cn1 result=0/5
structure_string=COc1cc2c(Nc3ccc(Br)cc3F)ncnc2cc1OCC1CCN(C)CC1 result=0/5
structure_string=COc1cccc2c1C(=O)c1c(O)c3c(c(O)c1C2=O)C[C@@](O)(C(=O)CO)C[C@@H]3O[C@H]1C[C@H](N)[C@H](O)[C@H](C)O1 result=0/5

----------
Parameter: Imp (impedance), % change from baseline. Scope: all listed entries.
# Test system: hiPSC-CMs (iCell-Cardiomyocytes^2)
# ASSAY PROTOCOL: MEA impedance (cytotoxicity readout) in hiPSC-CMs
# EXPERIMENTAL CONDITIONS: 10 µM; 24h
QUANTITY KIND: Imp (impedance), % change from baseline (%)

compound="CC1(C)S[C@@H]2[C@H](NC(=O)[C@H](N)c3ccc(O)cc3)C(=O)N2[C@H]1C(=O)O [Amoxicillin]" quantity_kind="Imp (impedance), % change from baseline" quantitative_readout=7
compound="C#Cc1cccc(Nc2ncnc3cc(OCCOC)c(OCCOC)cc23)c1 [Erlotinib]" quantity_kind="Imp (impedance), % change from baseline" quantitative_readout=-17
compound="COc1nc(N)nc2c1ncn2[C@@H]1O[C@H](COP(=O)(N[C@@H](C)C(=O)OCC(C)(C)C)Oc2cccc3ccccc23)[C@@H](O)[C@@]1(C)O (stereo partly drawn) [BMS-986094]" quantity_kind="Imp (impedance), % change from baseline" quantitative_readout=4
compound="C[C@H](CS)C(=O)N1CCC[C@H]1C(=O)O [Captopril]" quantity_kind="Imp (impedance), % change from baseline" quantitative_readout=-5
compound="CC(C)(Sc1cc(C(C)(C)C)c(O)c(C(C)(C)C)c1)Sc1cc(C(C)(C)C)c(O)c(C(C)(C)C)c1 [Probucol]" quantity_kind="Imp (impedance), % change from baseline" quantitative_readout=-7
compound="CC(=O)Oc1ccccc1C(=O)O [Aspirin]" quantity_kind="Imp (impedance), % change from baseline" quantitative_readout=-8

----------
# Tested on: hiPSC-CMs (iCell-Cardiomyocytes^2)
# EXPERIMENTAL CONDITIONS: 1 µM, 72h
QUANTITY KIND: BR (beating rate), % change from baseline (%)

compound="O=C(O)COCCN1CCN(C(c2ccccc2)c2ccc(Cl)cc2)CC1 (centres unmarked) [Cetirizine]" quantitative_readout=-6
compound="C[C@H](CS)C(=O)N1CCC[C@H]1C(=O)O [Captopril]" quantitative_readout=-10
compound="CC(C)(Sc1cc(C(C)(C)C)c(O)c(C(C)(C)C)c1)Sc1cc(C(C)(C)C)c(O)c(C(C)(C)C)c1 [Probucol]" quantitative_readout=0
compound="N=C(N)c1ccc(OCCCCCOc2ccc(C(=N)N)cc2)cc1 [Pentamidine]" quantitative_readout=-30
compound="CC1(C)S[C@@H]2[C@H](NC(=O)[C@H](N)c3ccc(O)cc3)C(=O)N2[C@H]1C(=O)O [Amoxicillin]" quantitative_readout=-2
compound="COc1nc(N)nc2c1ncn2[C@@H]1O[C@H](COP(=O)(N[C@@H](C)C(=O)OCC(C)(C)C)Oc2cccc3ccccc23)[C@@H](O)[C@@]1(C)O (some centres unmarked) [BMS-986094]" quantitative_readout=17
compound="COc1cc2c(Nc3ccc(Br)cc3F)ncnc2cc1OCC1CCN(C)CC1 [Vandetanib]" quantitative_readout=-68
compound="CCN(CC)CCNC(=O)c1c(C)[nH]c(/C=C2\\C(=O)Nc3ccc(F)cc32)c1C [Sunitinib]" quantitative_readout=-70

----------
# Test system: hiPSC-CMs (iCell-Cardiomyocytes^2)
# EXPERIMENTAL CONDITIONS: 1 µM, 48h
Parameter: Cessation of beating, number of observations/total well numbers. Scope: all listed entries.
QUANTITY KIND: Cessation of beating, number of observations/total well numbers

structure_string=COc1cc2c(Nc3ccc(Br)cc3F)ncnc2cc1OCC1CCN(C)CC1 result=0/5
structure_string=N=C(N)c1ccc(OCCCCCOc2ccc(C(=N)N)cc2)cc1 result=0/6
structure_string=COc1cccc2c1C(=O)c1c(O)c3c(c(O)c1C2=O)C[C@@](O)(C(=O)CO)C[C@@H]3O[C@H]1C[C@H](N)[C@H](O)[C@H](C)O1 result=5/5
structure_string=CC(C)(Sc1cc(C(C)(C)C)c(O)c(C(C)(C)C)c1)Sc1cc(C(C)(C)C)c(O)c(C(C)(C)C)c1 result=0/4

----------
# Tested on: hiPSC-CMs (iCell-Cardiomyocytes^2)
# EXPERIMENTAL CONDITIONS: 10 µM; 72h
QUANTITY KIND: FPDc (field-potential duration corrected by beat-rate), % change from baseline (%)

structure_string=C#Cc1cccc(Nc2ncnc3cc(OCCOC)c(OCCOC)cc23)c1 tested_on="hiPSC-CMs (iCell-Cardiomyocytes^2)" quantitative_readout=10.6
structure_string=CC1(C)S[C@@H]2[C@H](NC(=O)[C@H](N)c3ccc(O)cc3)C(=O)N2[C@H]1C(=O)O tested_on="hiPSC-CMs (iCell-Cardiomyocytes^2)" quantitative_readout=8.9
structure_string=C[C@H](CS)C(=O)N1CCC[C@H]1C(=O)O tested_on="hiPSC-CMs (iCell-Cardiomyocytes^2)" quantitative_readout=11.2
structure_string=CC(C)(Sc1cc(C(C)(C)C)c(O)c(C(C)(C)C)c1)Sc1cc(C(C)(C)C)c(O)c(C(C)(C)C)c1 tested_on="hiPSC-CMs (iCell-Cardiomyocytes^2)" quantitative_readout=-2.8

----------
# Tested on: hiPSC-CMs (iCell-Cardiomyocytes^2)
# EXPERIMENTAL CONDITIONS: 1 µM, 2h
QUANTITY KIND: Beating below threshold, number of observations/total well numbers

structure_string=COc1cc2c(Nc3ccc(Br)cc3F)ncnc2cc1OCC1CCN(C)CC1 result=0/5
structure_string=C#Cc1cccc(Nc2ncnc3cc(OCCOC)c(OCCOC)cc23)c1 result=0/5
structure_string=Cc1cn(-c2cc(NC(=O)c3ccc(C)c(Nc4nccc(-c5cccnc5)n4)c3)cc(C(F)(F)F)c2)cn1 result=0/5
structure_string=CC(C)(Sc1cc(C(C)(C)C)c(O)c(C(C)(C)C)c1)Sc1cc(C(C)(C)C)c(O)c(C(C)(C)C)c1 result=0/4

----------
Parameter: FPDc (field-potential duration corrected by beat-rate), % change from baseline. Scope: all listed entries.
# Test system: hiPSC-CMs (iCell-Cardiomyocytes^2)
# EXPERIMENTAL CONDITIONS: 10 µM; 2h
QUANTITY KIND: FPDc (field-potential duration corrected by beat-rate), % change from baseline (%)

compound="C[C@H](CS)C(=O)N1CCC[C@H]1C(=O)O [Captopril]" quantitative_readout=1
compound="C#Cc1cccc(Nc2ncnc3cc(OCCOC)c(OCCOC)cc23)c1 [Erlotinib]" quantitative_readout=3.9
compound="COc1nc(N)nc2c1ncn2[C@@H]1O[C@H](COP(=O)(N[C@@H](C)C(=O)OCC(C)(C)C)Oc2cccc3ccccc23)[C@@H](O)[C@@]1(C)O (some centres unmarked) [BMS-986094]" quantitative_readout=-4.4
compound="CC1(C)S[C@@H]2[C@H](NC(=O)[C@H](N)c3ccc(O)cc3)C(=O)N2[C@H]1C(=O)O [Amoxicillin]" quantitative_readout=3
compound="CC(C)(Sc1cc(C(C)(C)C)c(O)c(C(C)(C)C)c1)Sc1cc(C(C)(C)C)c(O)c(C(C)(C)C)c1 [Probucol]" quantitative_readout=6
